# Test system: Cyperus iria
# Assay Name: Preemergence weed control under flooded paddy conditions, CYPIR (Rice Flatsedge)
# Type: in vivo
# Protocol Conditions: 0.0620 kg/ha; preemergence weeds, flooded paddy; herbicidal effect rating 0-9, three to four weeks after treatment
The following ranges of CYPIR define the classes used here: low bracket (below 3), middle bracket (3 to below 7), high bracket (7 or more)

Recorded results for 5 molecules are shown here.
> print(dat)
                                   molecule        category
1  COc1cc(C)c(I)cc1-c1nsc2ccc(-n3c(=O)cc(C(F)(F)F)n(C)c3=O)cc12 [Example 429]    high bracket
2  COc1cc(C(Br)Br)ccc1-c1nsc2ccc(-n3c(=O)cc(C(F)(F)F)n(C)c3=O)cc12 [Example 447]  middle bracket
3  COC(OC)c1nsc2ccc(-n3c(=O)cc(C(F)(F)F)n(C)c3=O)cc12 [Example 453]    high bracket
4  Cn1c(C(F)(F)F)cc(=O)n(-c2ccc3snc(/C=N/Nc4ccccc4)c3c2)c1=O [Example 408]    high bracket
5  Cn1c(C(F)(F)F)cc(=O)n(-c2ccc3snc(C(SCCO)SCCO)c3c2)c1=O [Example 419]     low bracket

Kindly state the category for this molecule: Cn1c(C(F)(F)F)cc(=O)n(-c2ccc3snc(COC4CCCCO4)c3c2)c1=O (centres unmarked) [Example 456]
middle bracket

# bin lookup: classify Cn1c(C(F)(F)F)cc(=O)n(-c2ccc3snc(C(=O)c4ccccc4)c3c2)c1=O [Example 449] by its CYPIR
middle bracket

----------
# Test system: Monochoria vaginalis, Presl.
# Assay Name: Preemergence weed control under flooded paddy conditions, MOOVA (Monochoria)
# Assay type: in vivo
# Protocol Conditions: 0.1250 kg/ha; preemergence weeds, flooded paddy; herbicidal effect rating 0-9, three to four weeks after treatment
Provide the reported MOOVA of each item.
Give bare numbers.

I'm hoping you can list MOOVA for every compound here, please.
1. Cn1c(C(F)(F)F)cc(=O)n(-c2ccc3snc(C(=O)SCc4ccccc4)c3c2)c1=O
2. COC(=O)COc1cc2c(cc1-c1nsc3ccc(-n4c(=O)cc(C(F)(F)F)n(C)c4=O)cc13)CCC2
3. Cc1ccc(OCC(=O)O)c(-c2noc3cc(F)c(-n4c(=O)cc(C(F)(F)F)n(C)c4=O)cc23)c1

1. 7.0
2. 9.0
3. 9.0

Please give MOOVA for each item listed below.
1. Cn1c(C(F)(F)F)cc(=O)n(-c2ccc3snc(COC4CCCCO4)c3c2)c1=O (stereo not shown)
2. COc1ccc(CC(=O)OCc2nsc3ccc(-n4c(=O)cc(C(F)(F)F)n(C)c4=O)cc23)cc1
3. COC(OC)c1nsc2ccc(-n3c(=O)cc(C(F)(F)F)n(C)c3=O)cc12
4. COC(=O)COc1ccc(C)cc1-c1nsc2cc(Cl)c(-n3c(=O)cc(C(F)(F)F)n(C)c3=O)cc12

[9.0, 9.0, 9.0, 7.0]

----------
Please go through the items and note down their herbicidal effect rating, CYPIR.
# Test system: Cyperus iria
# Assay Name: Preemergence weed control under flooded paddy conditions, CYPIR (Rice Flatsedge); on herbicidal effect rating, CYPIR: meaning of each grade not given here
# Type: in vivo
# Protocol Conditions: Rate 0.5000 kg/ha; preemergence, flooded paddy; rated 3-4 weeks after treatment
Give bare numbers.

> print(dat)
                                   compound                     readout.name  observed.value
1  COCCOC(=O)C(C)(C)Oc1ccc(C)cc1-c1nsc2ccc(-n3c(=O)cc(C(F)(F)F)n(C)c3=O)cc12  herbicidal effect rating, CYPIR             2.0
2  CCCS(=O)(=O)NC(=O)COc1ccccc1-c1nsc2ccc(-n3c(=O)cc(C(F)(F)F)n(C)c3=O)cc12  herbicidal effect rating, CYPIR             3.0
3  Cn1c(C(F)(F)F)cc(=O)n(-c2ccc3snc(-c4ccccc4OCC(=O)C(C)(C)C)c3c2)c1=O  herbicidal effect rating, CYPIR             9.0
4  CCOC(=O)c1ccc(NC(=O)C(C)Oc2ccc(C)cc2-c2nsc3ccc(-n4c(=O)cc(C(F)(F)F)n(C)c4=O)cc23)cc1 (centres unmarked)  herbicidal effect rating, CYPIR             9.0
5  C=CS(=O)(=O)NC(=O)COc1ccccc1-c1nsc2ccc(-n3c(=O)cc(C(F)(F)F)n(C)c3=O)cc12  herbicidal effect rating, CYPIR             9.0
6  Cc1ccc(OCC(=O)c2ccc(OC(F)F)cc2)c(-c2nsc3ccc(-n4c(=O)cc(C(F)(F)F)n(C)c4=O)cc23)c1  herbicidal effect rating, CYPIR             3.0
7  Cc1ccc(OCC(=O)NS(=O)(=O)C(C)C)c(-c2nsc3ccc(-n4c(=O)cc(C(F)(F)F)n(C)c4=O)cc23)c1  herbicidal effect rating, CYPIR             3.0

Pending compound:
For "CCS(=O)(=O)NC(=O)COc1ccc(C)cc1-c1nsc2ccc(-n3c(=O)cc(C(F)(F)F)n(C)c3=O)cc12" the compound record lists herbicidal effect rating, CYPIR as 5.0

----------
# Test system: Cyperus iria
# Assay Name: Postemergence weed control under flooded paddy conditions, CYPIR (Rice Flatsedge)
# Format: in vivo
# Protocol Conditions: Rate 0.0620 kg/ha, rated three to four weeks after treatment
Readout Name: herbicidal effect rating, CYPIR
Answers are plain numbers.

Here's what some known entries look like.
> print(dat)
                                chem.smiles  observed.value
1  Cn1c(C(F)(F)F)cc(=O)n(-c2ccc3snc(C(=O)C(C)(C)C)c3c2)c1=O             8.0
2  COc1cc2c(cc1-c1nsc3ccc(-n4c(=O)cc(C(F)(F)F)n(C)c4=O)cc13)CCC2             9.0
3  COc1ccc(OC)c(-c2nsc3ccc(-n4c(=O)cc(C(F)(F)F)n(C)c4=O)cc23)c1             9.0

Entry under test: "CCOc1cccc(-c2nsc3ccc(-n4c(=O)cc(C(F)(F)F)n(C)c4=O)cc23)c1" . Its herbicidal effect rating, CYPIR was 9.0

----------
# System: Cyperus serotinus, Rottb.
# Assay Name: Preemergence weed control under flooded paddy conditions, CYPSE (Flatsedge); further: meaning of each grade not given here
# Format: in vivo
# Protocol Conditions: Rate 0.1250 kg/ha, preemergence, rated 3-4 weeks after treatment
Checkbox rule: herbicidal effect rating, CYPSE lower than 5 = true; herbicidal effect rating, CYPSE not lower than 5 = false.

Some solved cases for reference:
> print(dat)
                                chem.smiles  category
1  C=CS(=O)(=O)NC(=O)COc1ccccc1-c1nsc2ccc(-n3c(=O)cc(C(F)(F)F)n(C)c3=O)cc12     false
2  CCS(=O)(=O)NC(=O)COc1ccc(C)cc1-c1nsc2ccc(-n3c(=O)cc(C(F)(F)F)n(C)c3=O)cc12      true
3  Cc1ccc(OCC(=O)OCC(C)(C)Cc2ccccc2)c(-c2nsc3ccc(-n4c(=O)cc(C(F)(F)F)n(C)c4=O)cc23)c1      true

Let's switch to this compound now.
# strict comparison: is reported herbicidal effect rating, CYPSE < 5? input = "CCS(=O)(=O)NC(=O)COc1ccccc1-c1nsc2ccc(-n3c(=O)cc(C(F)(F)F)n(C)c3=O)cc12"
false

----------
Field: herbicidal effect rating, CYPIR. Provide a value for each of the compounds that follow.
# Tested on: Cyperus iria
# Assay Name: Preemergence weed control under flooded paddy conditions, CYPIR (Rice Flatsedge); on herbicidal effect rating, CYPIR: meaning of each grade not given here
# Format: in vivo
# Protocol Conditions: 0.1250 kg/ha; preemergence weeds, flooded paddy; rated three to four weeks after treatment
Answers are plain numbers.

> print(dat)
                                chem.smiles  observed.value
1  Cn1c(C(F)(F)F)cc(=O)n(-c2ccc3snc(COC(=O)c4ccccc4)c3c2)c1=O             0.0
2  CCN(CC)c1nsc2ccc(-n3c(=O)cc(C(F)(F)F)n(C)c3=O)cc12             0.0
3  Cn1c(C(F)(F)F)cc(=O)n(-c2ccc3snc(C(Cl)Cl)c3c2)c1=O             9.0

// moving on: another record for herbicidal effect rating, CYPIR
Kindly note the recorded herbicidal effect rating, CYPIR for "CC(C)=CCOC(=O)COc1ccc(C)cc1-c1nsc2ccc(-n3c(=O)cc(C(F)(F)F)n(C)c3=O)cc12" , which is 2.0

----------
# Test system: Oryza sativa, (L.) Tebonnet
# Assay Name: Rice tolerance to post-transplant applications under flooded paddy conditions (Example 187), ORYSAT (Rice, Tebonnet); further: meaning of each grade not given here
# Protocol Conditions: Rate 0.2500 kg/ha, rated three to four weeks after treatment
Answer each item with its documented herbicidal effect rating ORYSAT.
Give bare numbers.

Field: example entries. Status: answers known.
> print(dat)
                                    compound                system.tested  observed.value
 1  Cn1c(C(F)(F)F)cc(=O)n(-c2ccc3snc(C(N)=O)c3c2)c1=O  Oryza sativa, (L.) Tebonnet             7.0
 2  CC(=O)c1nsc2ccc(-n3c(=O)cc(C(F)(F)F)n(C)c3=O)cc12  Oryza sativa, (L.) Tebonnet             9.0
 3  Cn1c(C(F)(F)F)cc(=O)n(-c2ccc3snc(C(C#N)=Cc4ccco4)c3c2)c1=O  Oryza sativa, (L.) Tebonnet             3.0
 4  CC(Br)c1nsc2ccc(-n3c(=O)cc(C(F)(F)F)n(C)c3=O)cc12 (stereo not shown)  Oryza sativa, (L.) Tebonnet             9.0
 5  CC(O)c1nsc2ccc(-n3c(=O)cc(C(F)(F)F)n(C)c3=O)cc12 (stereo not shown)  Oryza sativa, (L.) Tebonnet             7.0
 6  Cn1c(C(F)(F)F)cc(=O)n(-c2ccc3snc(C(=O)NS(=O)(=O)CCl)c3c2)c1=O [Example 334]  Oryza sativa, (L.) Tebonnet             3.0
 7  CC#CCOC(=O)c1nsc2ccc(-n3c(=O)cc(C(F)(F)F)n(C)c3=O)cc12  Oryza sativa, (L.) Tebonnet             6.0
 8  CSc1ccc(C)cc1-c1nsc2ccc(-n3c(=O)cc(C(F)(F)F)n(C)c3=O)cc12  Oryza sativa, (L.) Tebonnet             3.0
 9  Cn1c(C(F)(F)F)cc(=O)n(-c2ccc3snc(CN(C(=O)OC(C)(C)C)S(C)(=O)=O)c3c2)c1=O  Oryza sativa, (L.) Tebonnet             4.0
10  CN(C(=O)c1nsc2ccc(-n3c(=O)cc(C(F)(F)F)n(C)c3=O)cc12)c1ccc(Cl)cc1  Oryza sativa, (L.) Tebonnet             5.0

Okay, here is my list. What is herbicidal effect rating ORYSAT for each of these?
1. CCC(=O)COC(=O)COc1ccc(C)cc1-c1nsc2ccc(-n3c(=O)cc(C(F)(F)F)n(C)c3=O)cc12
2. CN(O)C(=O)COc1ccccc1-c1nsc2ccc(-n3c(=O)cc(C(F)(F)F)n(C)c3=O)cc12
3. CCOc1cccc(-c2nsc3ccc(-n4c(=O)cc(C(F)(F)F)n(C)c4=O)cc23)c1
4. CCOCN(C(=O)c1nsc2ccc(-n3c(=O)cc(C(F)(F)F)n(C)c3=O)cc12)S(C)(=O)=O
5. Cn1c(C(F)(F)F)cc(=O)n(-c2ccc3snc(C(=O)CCl)c3c2)c1=O
6. Cn1c(C(F)(F)F)cc(=O)n(-c2ccc3snc(COC(=O)Cc4ccccc4)c3c2)c1=O

[9.0, 9.0, 4.0, 5.0, 6.0, 7.0]
